protein stability index reference
B1: RBBP5 (parent)
chain: TGTSNTTAIKSIEFARKGSCFLIN

Variants of: B1
PROTOCOL_TEXT: protein stability index of a GFP-peptide fusion (GPS, HEK-293T) (PSI 1-6); higher = more stable;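 note: lentivirally expressed fusions sorted by FACS into six bins by GFP to DsRed ratio, PSI derived from sequencing read proportions per bin multiplied by bin number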
CONDITION_NOTES: c terminus: a fixed tail appended
Just the number.

# SEQ, protein stability index
records = [
    ("TGTSNTTAIKSIEFARKPSCFLIN [G18P]", 2.35),
    ("TGTSNTTAIKSIEFAQKGSCFLIN [R16Q]", 2.73),
    ("TGTSNTTAIKSIEFARKGSCFSIN [L22S]", 3.05),
    ("TGTSNTTAIKSIEFAIKGSCFLIN [R16I]", 3.29),
]

Shift focus to the following entry.
I would be grateful if you could share the reported protein stability index for TGTSNTTAIKSIEFASKGSCFLIN [R16S] .
2.44
